Every entry's value here was drawn from patent US6090787A.

Target: Bovine trypsin (Bos taurus, UniProt P00760)
Construct: purchased Worthington Biochemicals, Freehold, N.J
Sequence (P00760 24-246): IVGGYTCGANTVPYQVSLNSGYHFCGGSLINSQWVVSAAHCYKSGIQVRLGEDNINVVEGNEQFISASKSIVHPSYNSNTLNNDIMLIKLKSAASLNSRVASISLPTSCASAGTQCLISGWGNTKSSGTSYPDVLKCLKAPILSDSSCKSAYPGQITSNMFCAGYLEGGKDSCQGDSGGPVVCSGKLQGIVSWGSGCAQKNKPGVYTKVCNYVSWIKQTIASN
Experiment: Serine protease selectivity, Kass, trypsin chromogenic assay
Format: biochemical
Settings: apparent association constant
Square brackets hold non-standard residues; d marks the D form. Peptide text beside a SMILES is read from it. dPip = O=C(O)[C@H]1CCCCN1; Nleu = CC(C)CNCC(=O)O
Binarize Enzyme Kass Trypsin at 3 L/mol × 10^6; below is MET, at or above is NOT MET.

Task item: I wonder whether CCS(=O)(=O)N[C@H](Cc1ccccc1)C(=O)N(C)CC(=O)N[C@H](C=O)CCCNC(=N)N.Cl.Cl [Example 16] has Enzyme Kass Trypsin below 3 L/mol × 10^6. Can you tell?
Reply: NOT MET

Task item: Does Cl.Cl.N=C(N)NCCC[C@@H](C=O)NC(=O)CN(CCCCC(=O)O)C(=O)[C@H]1CCCCN1 [Example 15] have Enzyme Kass Trypsin strictly under 3 L/mol × 10^6?
Reply: MET

Task item: Is the reported Enzyme Kass Trypsin for CC(C)CCN(CC(=O)N[C@H](C=O)CCCN=C(N)N)C(=O)[C@H]1CCCCN1.Cl.Cl [Example 6, D--hPro--N(isoamyl)Gly--ArgH.2HCl] strictly below 3 L/mol × 10^6?
Reply: NOT MET

Task item: Determine whether this compound shows Enzyme Kass Trypsin lower than 3 L/mol × 10^6 (ties excluded): CC(C)CN(CC(=O)N[C@H](C=O)CCCNC(=N)N)C(=O)[C@H]1CCCCN1.Cl.Cl [Example 5, D--hPro--N(i--Bu)Gly--ArgH.2HCl] (H-[dPip]-[Nleu]-Arg-aldehyde)
Reply: MET

Task item: Confirm or reject: Enzyme Kass Trypsin of Cl.Cl.NC(N)=NCCC[C@@H](C=O)NC(=O)CN(CCC1CCCCC1)C(=O)[C@H]1CCCCN1 [Example 10] lies strictly below 3 L/mol × 10^6
Reply: NOT MET

Task item: Please check: Enzyme Kass Trypsin for Cl.Cl.N=C(N)NCCC[C@@H](C=O)NC(=O)CN(CCc1ccccc1)C(=O)[C@H]1CCCCN1 [Example 8] , strictly under 3 L/mol × 10^6 or not?
Reply: MET
